# targetOfAssay: hα7-wt nAChR-expressing GH4Cl cells (Homo sapiens, UniProt P36544)
# Construct: expressed in transfected cells
# Sequence (P36544 23-502): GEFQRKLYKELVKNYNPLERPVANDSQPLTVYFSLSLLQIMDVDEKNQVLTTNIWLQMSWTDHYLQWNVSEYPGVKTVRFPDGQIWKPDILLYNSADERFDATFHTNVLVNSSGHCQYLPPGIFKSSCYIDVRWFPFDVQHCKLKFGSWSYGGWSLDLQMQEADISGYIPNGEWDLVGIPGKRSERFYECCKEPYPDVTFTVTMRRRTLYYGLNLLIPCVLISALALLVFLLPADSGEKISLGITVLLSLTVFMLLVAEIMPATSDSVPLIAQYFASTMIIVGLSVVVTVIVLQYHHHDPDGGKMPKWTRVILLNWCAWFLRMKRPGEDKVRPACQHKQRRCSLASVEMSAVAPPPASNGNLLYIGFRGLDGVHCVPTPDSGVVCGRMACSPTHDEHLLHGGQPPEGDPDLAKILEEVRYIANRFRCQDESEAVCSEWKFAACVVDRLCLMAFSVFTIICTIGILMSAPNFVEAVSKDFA
# methodSummary: Patch-clamp current recording (whole-cell), potentiation of choline 1 mM response, PAM type
# Type: cell-based
# studyConditions: according to Ex. D.2; "<5" = no top plateau reached at maximal concentration; read-out: Potency (pEC50) (converted)
resultType: EC50 (µM)
Number only, in µM; omit the unit.

Identify the measured EC50 of CNC(=O)Cc1nc(Nc2ccc(F)c(F)c2)nn1-c1ccc2c(c1)OCCO2 [E36] for hα7-wt nAChR-expressing GH4Cl cells (Homo sapiens, UniProt P36544).
1.74

Identify the measured EC50 of Cc1cc(-n2nc(Nc3cc(F)c(F)c(F)c3)nc2C[C@H](C)O)ccn1 [E207] for hα7-wt nAChR-expressing GH4Cl cells (Homo sapiens, UniProt P36544).
1.32

Identify the measured EC50 of Cc1cc(-n2nc(Nc3cccc(Cl)c3F)nc2CC(=O)NC2CC2)cc(C)n1 [E150] for hα7-wt nAChR-expressing GH4Cl cells (Homo sapiens, UniProt P36544).
0.417

Identify the measured EC50 of Cc1cc(-n2nc(Nc3cc(F)cc(C(F)(F)F)c3)nc2CC(=O)NC2CCC2)cc(C)n1 [E254] for hα7-wt nAChR-expressing GH4Cl cells (Homo sapiens, UniProt P36544).
0.0759

Identify the measured EC50 of CC[C@H](O)Cc1nc(Nc2cc(OC)cc(C(F)(F)F)c2)nn1-c1ccnc(C)c1 [E137] for hα7-wt nAChR-expressing GH4Cl cells (Homo sapiens, UniProt P36544).
0.105

Identify the measured EC50 of C[C@H](O)Cc1nc(Nc2ccc(F)c(F)c2)nn1-c1cccc(F)c1 [E17] for hα7-wt nAChR-expressing GH4Cl cells (Homo sapiens, UniProt P36544).
3.55

Identify the measured EC50 of Cc1cc(-n2nc(Nc3cccc(Cl)c3F)nc2CC(=O)NCC2CC2)cc(C)n1 [E154] for hα7-wt nAChR-expressing GH4Cl cells (Homo sapiens, UniProt P36544).
0.219

Identify the measured EC50 of C[C@H](O)Cc1nc(Nc2ccc(F)c(C(F)(F)F)c2)nn1-c1ccc(F)cc1 [E20] for hα7-wt nAChR-expressing GH4Cl cells (Homo sapiens, UniProt P36544).
4.47

Identify the measured EC50 of CC[C@H](O)Cc1nc(Nc2cc(OC)cc(C(F)(F)F)c2)nn1-c1ccnc(C)c1C [E220] for hα7-wt nAChR-expressing GH4Cl cells (Homo sapiens, UniProt P36544).
2.04

Identify the measured EC50 of CC[C@@H](O)Cc1nc(Nc2cc(OC)cc(C(F)(F)F)c2)nn1-c1cc(C)nc(C)c1 [E128] for hα7-wt nAChR-expressing GH4Cl cells (Homo sapiens, UniProt P36544).
0.126

Identify the measured EC50 of Cc1cc(-n2nc(Nc3ccc(F)c(C(F)(F)F)c3)nc2CCCCl)ccn1 [E9] for hα7-wt nAChR-expressing GH4Cl cells (Homo sapiens, UniProt P36544).
0.437

Identify the measured EC50 of CNC(=O)CCc1nc(Nc2cccc(OC(F)(F)F)c2)nn1-c1ccnc(C)c1 [E54] for hα7-wt nAChR-expressing GH4Cl cells (Homo sapiens, UniProt P36544).
2.29

Identify the measured EC50 of Cc1cc(-n2nc(Nc3ccc(F)c(C(F)(F)F)c3)nc2CC(=O)NC2CC2)cc(C)n1 [E226] for hα7-wt nAChR-expressing GH4Cl cells (Homo sapiens, UniProt P36544).
0.12

Identify the measured EC50 of CCNC(=O)C(C)c1nc(Nc2ccc3c(c2)OC(F)(F)O3)nn1-c1cc(C)nc(C)c1 (stereo not drawn) [E275] for hα7-wt nAChR-expressing GH4Cl cells (Homo sapiens, UniProt P36544).
1.05

Identify the measured EC50 of C[C@H](O)Cc1nc(Nc2ccc(F)c(C(F)(F)F)c2)nn1-c1ccncc1Cl [E25] for hα7-wt nAChR-expressing GH4Cl cells (Homo sapiens, UniProt P36544).
4.79

* * *

Exercise: for every item that follows, state its recorded Pam type.
# targetOfAssay: hα7-wt nAChR-expressing GH4Cl cells (Homo sapiens)
# Construct: expressed in transfected cells
# methodSummary: Patch-clamp current recording (whole-cell), potentiation of choline 1 mM response, PAM type
# Format: cell-based
# Parameters: key: Type 0 compounds minimally enhance the effect size of the current elicited by 1 mM choline.; Type 1 compounds enhance the effect size of the current elicited by 1 mM choline but minimally alter the kinetics of the receptor.; Type 2 compounds enhance the effect size of the current elicited by 1 mM choline while reducing the rate and/or the extent of desensitization.; Type 3 compounds enhance the effect size of the current elicited by 1 mM choline. When tested at higher concentrations up to 10 μM they completely inhibit desensitization, in particular a 1 mM choline application of 250 milliseconds.; Type 4 compounds allow for an initial desensitization of the receptor followed by a re-opening of the receptor during agonist application
# studyConditions: patch-clamp current recording, 1 mM choline
Number only, no unit.

If you can, please state the reported Pam type value of "CCNC(=O)Cc1nc(Nc2ccc3c(c2)OC(F)(F)O3)nn1-c1cc(C)nc(C)c1" .
2

If you can, please state the reported Pam type value of "CC[C@H](O)Cc1nc(Nc2ccc(F)c(F)c2)nn1-c1ccc(OC)cc1" .
1

If you can, please state the reported Pam type value of "CNC(=O)Cc1nc(Nc2ccc(F)c(F)c2)nn1-c1ccc2c(c1)OCCO2" .
4

If you can, please state the reported Pam type value of "COc1ccc(-n2nc(Nc3ccc(F)c(F)c3)nc2CCC(=O)N(C)C)cc1OC" .
4

If you can, please state the reported Pam type value of "CC[C@H](O)Cc1nc(Nc2ccc(F)c(F)c2)nn1-c1cccc(F)c1" .
1

If you can, please state the reported Pam type value of "CN(C)C(=O)CCc1nc(Nc2ccc(F)c(F)c2)nn1-c1ccc(OC(F)(F)F)cc1" .
4

If you can, please state the reported Pam type value of "Cc1nccc(-n2nc(Nc3cccc(Cl)c3F)nc2CC(=O)NC2CCC2)c1C" .
1

If you can, please state the reported Pam type value of "CN(C)C(=O)CCc1nc(Nc2ccc(F)c(F)c2)nn1-c1ccc(Cl)cc1" .
4

If you can, please state the reported Pam type value of "Cc1cc(-n2nc(Nc3cc(F)c(F)c(F)c3)nc2C[C@H](C)O)cc(C)n1" .
2

If you can, please state the reported Pam type value of "CC[C@H](O)Cc1nc(Nc2ccc(OC)cc2)nn1-c1ccnc(C)c1" .
2

If you can, please state the reported Pam type value of "CCNc1cc(-n2nc(Nc3ccc(F)c(F)c3)nc2C[C@@H](O)CC)ccn1" .
3

If you can, please state the reported Pam type value of "Cc1cc(-n2nc(Nc3ccc(F)c(C(F)(F)F)c3)nc2CCCO)ccn1" .
2

If you can, please state the reported Pam type value of "CN(C)C(=O)CCc1nc(Nc2cc(F)c(F)c(Br)c2)nn1-c1ccc2c(c1)OCCO2" .
4

If you can, please state the reported Pam type value of "Cc1cc(-n2nc(Nc3ccc4c(c3)OC(F)(F)O4)nc2CC(=O)NC2CC2)cc(C)n1" .
2

If you can, please state the reported Pam type value of "CC[C@H](O)Cc1nc(Nc2cccc(Cl)c2F)nn1-c1ccnc(C)c1" .
2

* * *

# targetOfAssay: hα7-wt nAChR-expressing GH4Cl cells (Homo sapiens, UniProt P36544)
# Construct: expressed in transfected cells
# methodSummary: Patch-clamp current recording (whole-cell), potentiation of choline 1 mM response, PAM type
# Format: cell-based
# Design: key: Type 0 compounds minimally enhance the effect size of the current elicited by 1 mM choline.; Type 1 compounds enhance the effect size of the current elicited by 1 mM choline but minimally alter the kinetics of the receptor.; Type 2 compounds enhance the effect size of the current elicited by 1 mM choline while reducing the rate and/or the extent of desensitization.; Type 3 compounds enhance the effect size of the current elicited by 1 mM choline. When tested at higher concentrations up to 10 μM they completely inhibit desensitization, in particular a 1 mM choline application of 250 milliseconds.; Type 4 compounds allow for an initial desensitization of the receptor followed by a re-opening of the receptor during agonist application
# studyConditions: patch-clamp current recording, 1 mM choline
Exercise: for every item that follows, state its recorded Pam type.
Number only, no unit.

If you can, please state the reported Pam type value of CCc1cc(-n2nc(Nc3cc(OC)cc(C(F)(F)F)c3)nc2C[C@H](C)O)ccn1 [E133] .
4

If you can, please state the reported Pam type value of Cc1cc(-n2nc(Nc3ccc(F)c(F)c3)nc2CC(=O)NC2CC2)cc(C)n1 [E168] .
2

If you can, please state the reported Pam type value of CCNC(=O)Cc1nc(Nc2cc(Cl)cc(OC)c2)nn1-c1cc(C)nc(C)c1 [E219] .
4

If you can, please state the reported Pam type value of CC[C@H](O)Cc1nc(Nc2cc(F)cc(OC)c2)nn1-c1ccnc(C)c1 [E186] .
4

If you can, please state the reported Pam type value of CC[C@H](O)Cc1nc(Nc2cccc(Cl)c2)nn1-c1ccc(C)nc1 [E196] .
2

If you can, please state the reported Pam type value of CC[C@H](O)Cc1nc(Nc2cc(OC)cc(C(F)(F)F)c2)nn1-c1ccc(C)nc1 [E142] .
4

If you can, please state the reported Pam type value of CC[C@H](O)Cc1nc(Nc2ccc(OC)cc2)nn1-c1cc(C)nc(C)c1 [E203] .
2

If you can, please state the reported Pam type value of Cc1cc(-n2nc(Nc3cccc(Cl)c3F)nc2CC(=O)NC2CCC2)cc(C)n1 [E152] .
2

If you can, please state the reported Pam type value of COc1cccc(-n2nc(Nc3cccc(OC(F)(F)F)c3)nc2CCC(=O)N(C)C)c1 [E60] .
0

If you can, please state the reported Pam type value of COc1ccc(-n2nc(Nc3ccc(F)c(C(F)(F)F)c3)nc2CCC(=O)N(C)C)cc1OC [E65] .
4

If you can, please state the reported Pam type value of CCNC(=O)Cc1nc(Nc2cccc(Cl)c2F)nn1-c1cc(C)nc(C)c1 [E153] .
2

If you can, please state the reported Pam type value of CN(C)C(=O)CCc1nc(Nc2ccc(F)c(F)c2)nn1-c1ccc2c(c1)OCCO2 [E3] .
4

If you can, please state the reported Pam type value of Cc1cc(-n2nc(Nc3cc(F)c(F)c(F)c3)nc2C[C@H](C)O)ccn1 [E207] .
2

If you can, please state the reported Pam type value of CCc1cc(-n2nc(Nc3ccc(F)c(F)c3)nc2C[C@H](C)O)ccn1 [E131] .
2

If you can, please state the reported Pam type value of CC[C@H](O)Cc1nc(Nc2cc(OC)cc(C(F)(F)F)c2)nn1-c1ccnc(C)c1 [E137] .
4

If you can, please state the reported Pam type value of Cc1cc(-n2nc(Nc3ccc(F)c(C(F)(F)F)c3)nc2CC(=O)NC2CC2)cc(C)n1 [E226] .
1

If you can, please state the reported Pam type value of CC[C@H](O)Cc1nc(Nc2cccc(C(F)(F)F)c2)nn1-c1ccnc(C)c1 [E204] .
0

If you can, please state the reported Pam type value of CN(C)C(=O)CCc1nc(Nc2cccc(OC(F)(F)F)c2)nn1-c1cccnc1 [E71] .
4

If you can, please state the reported Pam type value of CNC(=O)Cc1nc(Nc2ccc(F)c(F)c2F)nn1-c1cc(C)nc(C)c1 [E209] .
2

If you can, please state the reported Pam type value of COc1cc(Cl)cc(Nc2nc(CC(=O)NC3CCC3)n(-c3cc(C)nc(C)c3)n2)c1 [E222] .
1

If you can, please state the reported Pam type value of Cc1cc(-n2nc(Nc3ccc(F)c(F)c3F)nc2CC(=O)NCC2CC2)cc(C)n1 [E214] .
2

If you can, please state the reported Pam type value of COc1cc(Nc2nc(C[C@H](C)O)n(-c3ccc(C)nc3)n2)cc(C(F)(F)F)c1 [E143] .
4

If you can, please state the reported Pam type value of CCNC(=O)Cc1nc(Nc2ccc(F)c(F)c2F)nn1-c1cc(C)nc(C)c1 [E210] .
2

If you can, please state the reported Pam type value of CC[C@H](O)Cc1nc(Nc2cc(F)cc(OC)c2)nn1-c1cc(C)nc(C)c1 [E190] .
2

If you can, please state the reported Pam type value of CN(C)C(=O)CCc1nc(Nc2ccc(F)c(C(F)(F)F)c2)nn1-c1ccncc1Cl [E74] .
4

If you can, please state the reported Pam type value of CC[C@H](O)Cc1nc(Nc2cccc(Cl)c2F)nn1-c1cc(C)nc(C)c1 [E172] .
2

If you can, please state the reported Pam type value of Cc1cc(-n2nc(Nc3ccc(F)c(F)c3)nc2CC(=O)NCC2CC2)cc(C)n1 [E185] .
2

If you can, please state the reported Pam type value of Cc1cc(-n2nc(Nc3ccc4c(c3)OC(F)(F)O4)nc2CC(=O)NCC2CC2)cc(C)n1 [E201] .
2

Hello, the source for this data is patent US8778974B2, in case you need it.
